# system: acetylcholine receptor (Homo sapiens)
# Sequence (P02708 21-457): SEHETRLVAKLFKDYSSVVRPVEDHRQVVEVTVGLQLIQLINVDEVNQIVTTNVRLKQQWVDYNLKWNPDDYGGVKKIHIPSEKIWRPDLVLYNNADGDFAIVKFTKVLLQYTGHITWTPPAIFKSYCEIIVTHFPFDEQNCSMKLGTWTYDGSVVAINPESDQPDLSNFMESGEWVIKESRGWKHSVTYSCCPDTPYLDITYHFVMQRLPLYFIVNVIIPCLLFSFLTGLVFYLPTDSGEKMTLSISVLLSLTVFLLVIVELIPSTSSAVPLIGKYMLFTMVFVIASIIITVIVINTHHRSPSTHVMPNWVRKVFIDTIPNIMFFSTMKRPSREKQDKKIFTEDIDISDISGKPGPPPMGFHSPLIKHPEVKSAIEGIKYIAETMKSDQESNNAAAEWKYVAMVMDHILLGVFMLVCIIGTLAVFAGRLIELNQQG
# protocol text: SPR binding affinity (RU) of optimized 5mer/6mer/7mer peptides, Examples 6-7
# study conditions: SPR, peptides tested at 10 μM; 6mer-1 Top sequence (top combinations)
metric: Binding affinity (Ru)
Answers are plain numbers, in Ru.

- substance: "6mer-1-158 (RRLIYR)"
  system: "acetylcholine receptor (Homo sapiens)"
  metric: "Binding affinity"
  test value: 131

Field: Binding affinity. Fill in for each record below.
1. 6mer-1-8 (RKRRRK)
2. 6mer-1-48 (RRWVRR)
3. 6mer-1-127 (KRVIYR)
4. 6mer-1-52 (RRRFLR)
5. 6mer-1-133 (RKRFLR)

A:
1: 125; 2: 124; 3: 147; 4: 131; 5: 154

Field: Binding affinity. Fill in for each record below.
1. 6mer-1-73 (KKQQQR)
2. 6mer-1-194 (RKWQRR)
3. 6mer-1-74 (KKVRLR)
4. 6mer-1-97 (KKVYLR)
5. 6mer-1-104 (KRGFSK)

A:
1. 142
2. 144
3. 142
4. 139
5. 121
